Origin of values: the Immune Epitope Database (IEDB)

Reported pKd by item:
# system.under.test: HLA-A*02:16
# assay.method.text: IEDB peptide-MHC binding, purified MHC/competitive/fluorescence; filed as Kd, often an IC50 or EC50 that approximates it; bounds were set here for any values at or beyond the usual limits of such assays
# run.conditions: source organism: Entamoeba histolytica HM-1:IMSS
pKd: −log10 of the molar value.

>>> result_value("RTFDRFFEE")
"≤ 4.70"

The record that follows has no pKd shown yet.
response.value for EVIRATYPS (field: pKd) = ≤ 4.70

----------
# system.under.test: HLA-B*57:01
# assay.method.text: IEDB peptide-MHC binding, purified MHC/competitive/fluorescence; filed as Kd, often an IC50 or EC50 that approximates it; bounds were set here for any values at or beyond the usual limits of such assays
# run.conditions: source organism: Zaire ebolavirus
Property: Kd; scope: individual sequences

>>> result_value("LSDAARLFL")
"≥ 20 µM"
>>> result_value("EWAENCYNL")
"≥ 20 µM"
>>> result_value("DEMVCKWLL")
"≥ 20 µM"

Looking up GLIQYPTAW , I found its Kd recorded as ≥ 20 µM
